Provenance of the data: paper PMC2894972

# target-or-test-system: Ubc13-Uev1 heterodimer (Homo sapiens)
# Construct: heterodimer of purified recombinant Ubc13 and Uev1; with Ubiquitin-conjugating enzyme E2 variant 1
# Sequence (P61088 whole entry): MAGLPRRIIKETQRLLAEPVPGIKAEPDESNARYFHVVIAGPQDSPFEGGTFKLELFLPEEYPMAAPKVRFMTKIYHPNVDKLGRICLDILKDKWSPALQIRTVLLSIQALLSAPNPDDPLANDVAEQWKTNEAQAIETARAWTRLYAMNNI
# Sequence (Q13404 2-147 partner): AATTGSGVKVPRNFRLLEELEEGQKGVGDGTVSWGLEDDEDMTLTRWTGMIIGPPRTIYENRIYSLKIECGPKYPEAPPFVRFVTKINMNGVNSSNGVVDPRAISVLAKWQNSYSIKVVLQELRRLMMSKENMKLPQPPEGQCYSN
# assay-name: surface plasmon resonance competition: Ubc13 preincubated with compound, injected over immobilized Uev1
# experimental-context: inhibition of Ubc13-Uev1 interaction; Ubc13 400 nM; 10 mM HEPES, 0.15 M NaCl, pH 7.4; legend prints 1.1 µM
measured-quantity: IC50 (nM)
Record the value in nM, omitting the unit from your answer.

Query string: Which IC50 is reported for this compound? NC(=O)CN(CCc1ccccn1)C(=O)CC1C(=O)N(CCc2ccc(F)cc2)CC(=O)N1CCc1ccc(F)cc1 (stereo not shown) [IIa, compound IIa]
Result string: 1100
